Target: Nucleic Acid
Assay: Inhibitory activity against bacterial DNA primase
Type: nucleic-acid assay, Escherichia coli
MEASURED_QUANTITY: IC50 (µM)

O=C(O[C@@H]1[C@@H](Oc2cc(O)cc(/C=C/c3ccc(O)cc3)c2)O[C@@H](CO)[C@@H](O)[C@@H]1O)c1cc(O)c(O)c(O)c1 | 4
O=C(OC[C@@H]1O[C@H](Oc2cc(O)cc(/C=C/c3ccc(O)cc3)c2)[C@@H](O)[C@@H](O)[C@@H]1O)c1cc(O)c(O)c(O)c1 | 5

---

Target: Nucleic Acid
Assay: Inhibitory activity against bacterial DNA primase in fluorescent intercalator dye displacement assay (FID)
Assay type: nucleic-acid assay, Escherichia coli
MEASURED_QUANTITY: pIC50
// scale note: pIC50 = -log10(conc_M); give the bare number

Form: compound = `O=C(O[C@@H]1[C@@H](Oc2cc(O)cc(/C=C/c3ccc(O)cc3)c2)O[C@@H](CO)[C@@H](O)[C@@H]1O)c1cc(O)c(O)c(O)c1` ; pIC50 = 5.40
